Where these numbers come from: ChEMBL document CHEMBL4002566

Test system: Mycobacterium kansasii
Test summary: Antimycobacterial activity against Mycobacterium kansasii 6509/96 clinical isolate after 21 days by micromethod
Format: functional
Details: 6509/96, 504 h
Below: a set of entries, each annotated with reported log10 MIC.
// units: µM (pre-log); metric: MIC; scale: log10

COc1ccc(CSc2nnc(-c3cc([N+](=O)[O-])cc([N+](=O)[O-])c3)o2)cc1 = -0.60
Nc1cc(-c2nnc(SCc3ccc(Cl)cc3)o2)cc([N+](=O)[O-])c1 = 2.40

Ask | I'd like to know its log10 MIC. The molecule in question is O=[N+]([O-])c1cc(-c2nnc(SCc3ccc(Cl)cc3)o2)cc(C(F)(F)F)c1
Reply | 0.00

---

Quick reference for MIC among some compounds
System: Klebsiella pneumoniae
Test summary: Antibacterial activity against Klebsiella pneumoniae HK11750/08 after 24 hrs by broth microdilution method
Format: functional
Details: HK11750/08, 24 h

Worked set:
O=[N+]([O-])c1cc(-c2nnc(SCc3ccc(Cl)cc3)o2)cc([N+](=O)[O-])c1 = > 500 µM
O=[N+]([O-])c1cc(-c2nnc(SCc3ccc(Br)cc3)o2)cc([N+](=O)[O-])c1 = > 125 µM
O=[N+]([O-])c1cc(-c2nnc(SCc3ccc(Cl)c(Cl)c3)o2)cc([N+](=O)[O-])c1 = > 125 µM
O=[N+]([O-])c1cc(-n2nnnc2SCc2ccc(Cl)cc2)cc([N+](=O)[O-])c1 = > 500 µM
O=[N+]([O-])c1cc(-n2nnnc2SCc2ccc(Cl)c(Cl)c2)cc([N+](=O)[O-])c1 = > 500 µM

Ask | Returns the measured MIC for the input compound. Input: COc1ccc(CSc2nnc(-c3cc([N+](=O)[O-])cc([N+](=O)[O-])c3)o2)cc1
Reply | > 500 µM

Ask | Same again, this time with O=[N+]([O-])c1cc(-c2nnc(SCc3ccccc3Cl)o2)cc([N+](=O)[O-])c1
Reply | > 500 µM

---

System: Klebsiella pneumoniae
Test summary: Antibacterial activity against extended spectrum beta-lactamase producing Klebsiella pneumoniae HK14368/08 after 48 hrs by broth microdilution method
Format: functional
Details: HK14368/08, 48 h
Readout name: MIC

The examples below pair each entry with its known result.
O=[N+]([O-])c1cc(-c2nnc(SCc3ccc(Cl)c(Cl)c3)o2)cc([N+](=O)[O-])c1 = > 125 µM
O=[N+]([O-])c1cc(-c2nnc(SCc3ccc(Br)cc3)o2)cc([N+](=O)[O-])c1 = > 125 µM
O=[N+]([O-])c1cc(-n2nnnc2SCc2ccc(Cl)cc2)cc([N+](=O)[O-])c1 = > 500 µM
O=[N+]([O-])c1cc(-c2nnc(SCc3ccccc3Cl)o2)cc([N+](=O)[O-])c1 = > 500 µM
O=[N+]([O-])c1cc(-n2nnnc2SCc2ccc(Cl)c(Cl)c2)cc([N+](=O)[O-])c1 = > 500 µM

Ask | Which MIC value belongs to O=[N+]([O-])c1cc(-c2nnc(SCc3ccc(Cl)cc3)o2)cc([N+](=O)[O-])c1 ?
Reply | > 500 µM

Ask | COc1ccc(CSc2nnc(-c3cc([N+](=O)[O-])cc([N+](=O)[O-])c3)o2)cc1 , same question.
Reply | > 500 µM
